# test.summary: qHTS assay to identify small molecule agonists of the estrogen receptor beta (ER-beta) signaling pathway - cell viability counter screen (AID 1259380); further: nearly all actives have a fitted effect of over 30% in size
# experimental.context: ER-beta-bla HEK293T viability, CellTiter-Glo luminescence, 16 h; series mostly up to 92.4 µM
Inconclusive results are not listed. Calls of active or inactive are those of the source. The call rests on the fitted dose curve; in most records, active means well fitted cell-killing curve with a large enough effect in the repeat runs; inconclusive means weak or mixed curves, or effect the other way; inactive means flat fitted curve, though single readings scatter.
Valid outcomes are listed here; reply with one: active, inactive

# molecule, label
rows = [
    ("COc1cc2nc(N(C)CCCNC(=O)C3CCCO3)nc(N)c2cc1OC (stereo not given)", "inactive"),
]

How did this test come out for CCOC(=O)c1cccnc1 ? inactive

How did this test come out for C=C(C)C(=O)OCCO ? inactive

How did this test come out for CCNc1cc(O)ccc1C ? inactive

How did this test come out for CCCCCCCCCCCC(=O)OC[C@@H](O)[C@H]1OC[C@H](OCCO)[C@H]1OCCO ? inactive

How did this test come out for COc1cc(C(=O)OCCCN2CCCN(CCCOC(=O)c3cc(OC)c(OC)c(OC)c3)CC2)cc(OC)c1OC ? active

How did this test come out for CO[C@@H]1[C@H](OC(=O)/C=C/C=C/C=C/C=C/C(=O)O)CC[C@]2(CO2)[C@H]1[C@@]1(C)O[C@@H]1CC=C(C)C ? inactive

How did this test come out for CC1CCC(=O)C1=O (stereo not given) ? inactive

How did this test come out for NC(=O)C(c1ccccc1)(c1ccccc1)[C@@H]1CCN(CCc2ccc3c(c2)CCO3)C1 ? inactive

How did this test come out for CC(C)O.CC(C)O.CCOC(=O)/C=C(\C)O.CCOC(=O)/C=C(\C)O.[Ti] ? inactive

How did this test come out for CCO[Si](CCCCl)(OCC)OCC ? inactive

How did this test come out for CCCCCCCCCOS(=O)(=O)O ? inactive

How did this test come out for CN(C)CCN(Cc1ccc(Cl)cc1)c1ccccn1 ? active

How did this test come out for CCOC(=O)C1=C[C@]2(CC)CCCN3CCc4c(n1c1ccccc41)[C@@H]32 ? active

---

# test.summary: qHTS RealTime-Glo MT Cell Viability Assay in HEK293 cells - 8 hour (AID 1224887); further: top concentration of the series differs between compounds; on the % scale 0 is the no-effect control and ±100 the full control effect; nearly all actives have a fitted effect of over 50% in size
# experimental.context: RealTime-Glo luminescence; series mostly up to 76.8 µM
Results filed as inconclusive are left out. Calls of active or inactive are those of the source. Calls come from the whole dose curve; as a rule, active = well fitted cell-killing curve with a large enough effect in the repeat runs; inconclusive = weak or mixed curves, or effect the other way; inactive = flat fitted curve, though single readings scatter.
Recorded activity change, negative = cytotoxicity, one value per entry.

// below: answered molecules
# molecule, activity change, negative = cytotoxicity
data = [
    ("NC(N)=NCCC[C@H](N)C(=O)O", "6.66% [at 6.97 µM] (inactive)"),
    ("Brc1c2ccccc2c(Br)c2ccccc12", "-3.92% [at 6.97 µM] (inactive)"),
    ("CC(CSC(=O)c1ccccc1)C(=O)N1C[C@@H](Sc2ccccc2)C[C@H]1C(=O)O (stereo partly specified)", "-4.84% [at 15.8 µM] (inactive)"),
    ("C/C=C/C(=O)CC", "0.36% [at 15.8 µM] (inactive)"),
]

For O=C(O)CNCC(=O)O , what is its reported activity change, negative = cytotoxicity? -7.77% [at 6.97 µM] (inactive)

For NCC(=O)O , what is its reported activity change, negative = cytotoxicity? 10.2% [at 15.8 µM] (inactive)

---

# target.under.test: Estrogen receptor beta (Homo sapiens) (UniProt Q92731)
# Sequence (Q92731 whole entry, looked up): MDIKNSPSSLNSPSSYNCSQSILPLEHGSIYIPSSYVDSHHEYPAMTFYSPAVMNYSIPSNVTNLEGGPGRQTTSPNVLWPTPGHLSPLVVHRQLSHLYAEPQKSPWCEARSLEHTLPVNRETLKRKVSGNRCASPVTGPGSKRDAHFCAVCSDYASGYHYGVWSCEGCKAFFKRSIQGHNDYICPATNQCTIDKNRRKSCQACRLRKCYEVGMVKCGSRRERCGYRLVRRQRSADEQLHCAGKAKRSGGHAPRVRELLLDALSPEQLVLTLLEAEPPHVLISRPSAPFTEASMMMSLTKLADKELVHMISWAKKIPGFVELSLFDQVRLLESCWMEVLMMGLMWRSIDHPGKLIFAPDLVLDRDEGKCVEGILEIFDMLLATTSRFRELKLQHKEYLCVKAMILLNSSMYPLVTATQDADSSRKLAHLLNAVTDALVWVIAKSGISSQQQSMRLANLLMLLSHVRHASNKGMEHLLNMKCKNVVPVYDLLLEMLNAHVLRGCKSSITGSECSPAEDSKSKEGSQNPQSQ
# test.summary: qHTS assay to identify small molecule antagonists of the estrogen receptor beta (ER-beta) signaling pathway (AID 1259378)
# experimental.context: ER-beta-UAS-bla HEK293T, beta-lactamase FRET ratio, 16 h; series mostly up to 92.4 µM
Results filed as inconclusive are left out. Activity calls are given as the source filed them. Calls come from the whole dose curve; as a rule, active = well fitted inhibition curve with a large enough effect in the signal ratio in the repeat runs (not every such curve was filed as active); inconclusive = weak or mixed curves, or effect the other way; inactive = no such curve, though single readings can be large or run the other way; the % refers to the signal ratio.
Valid outcomes are listed here; reply with one: Yes = active, No = inactive

Completed entries (count: 4):
# compound, label
measured = [
    ("c1ccc(CNCCNCc2ccccc2)cc1", "Yes"),
    ("O=C1OC(=O)C2C3C=CC(C3)C12 (configuration not stated)", "No"),
    ("CCCCC1=NC2(CCCC2)C(=O)N1Cc1ccc(-c2ccccc2-c2nn[nH]n2)cc1", "No"),
    ("CCC(C)c1cc(C(C)(C)C)c(O)c(C(C)(C)C)c1 (configuration not stated)", "No"),
]

Shift focus to the following entry.
How did this test come out for c1cc(CCCc2ccncc2)ccn1 ? No

---

# test.summary: qHTS assay to test for compound auto fluorescence at 590 nm (red) in HepG2 cells (AID 720674); further: on the % scale 0 is the no-effect control and ±100 the full control effect
# experimental.context: HepG2 autofluorescence, red 540/590 nm, 1 h; series mostly up to 91.3 µM
Calls of active or inactive are those of the source. Calls follow the shape of the dose curve; as a rule, active = well fitted curve in the direction sought with a large enough effect in the repeat runs; inconclusive = weak or mixed curves; inactive = flat fitted curve, though single readings scatter.
measured.attribute: fluorescence, relative to Rose Bengal

// below: answered compounds
# compound, recorded.value
records = [
    ("C#Cc1cccc(Nc2ncnc3cc(OCCOC)c(OCCOC)cc23)c1", "inactive"),
    ("CC1=CC[C@H](C(C)C)C=C1", "inactive"),
    ("Nc1ccc(S(=O)(=O)Nc2ccccc2)cc1", "inactive"),
    ("C/C=C/C(=O)CC", "-0.234% [at 18.6 µM] (inactive)"),
    ("Clc1ccc(Cn2c(CN3CCCC3)nc3ccccc32)cc1", "-0.15% [at 18.6 µM] (inactive)"),
]

For Cc1ccc(N=Nc2c(O)c(C(=O)O)cc3ccccc23)c(S(=O)(=O)O)c1 , what is its reported fluorescence, relative to Rose Bengal? inactive

For COc1cc2c(cc1OC)C(C(C(=O)N(CCc1ccc(OC)c(OC)c1OC)CCc1ccc(OC)c(OC)c1OC)c1ccccc1)=NCC2 (stereo unspecified) , what is its reported fluorescence, relative to Rose Bengal? inactive

For C[C@H](CCC(=O)O)[C@H]1CC[C@H]2[C@@H]3CC[C@@H]4C[C@H](O)CC[C@]4(C)[C@H]3C[C@H](O)[C@]12C , what is its reported fluorescence, relative to Rose Bengal? inactive

For C=CC(=O)OCCOCCOCCOCCOC(=O)C=C , what is its reported fluorescence, relative to Rose Bengal? inactive

For CCOC(=O)COC(=O)c1cc(Oc2ccc(C(F)(F)F)cc2Cl)ccc1[N+](=O)[O-] , what is its reported fluorescence, relative to Rose Bengal? inactive

For CC(C)(C)Cl , what is its reported fluorescence, relative to Rose Bengal? inactive

---

# test.summary: qHTS assay to identify small molecule antagonists of the retinoid acid receptor (RAR) signaling pathway - cell viability counter screen (AID 1159551); further: nearly all actives have a fitted effect of over 35% in size
# experimental.context: C3RL4 cells viability, ATP luminescence (CellTiter-Glo), 6 h; series mostly up to 92.4 µM
Results filed as inconclusive are left out. Calls of active or inactive are those of the source. The call rests on the fitted dose curve; in most records, active means well fitted cell-killing curve with a large enough effect in the repeat runs; inconclusive means weak or mixed curves, or effect the other way; inactive means flat fitted curve, though single readings scatter.
Valid outcomes are listed here; reply with one: true (1) for active, false (0) for inactive

Completed entries (count: 2):
# compound, label
measured = [
    ("OC(C#CCN1CCCC1)(c1ccccc1)c1ccccc1", "false (0)"),
    ("CO[C@@H]1[C@H](OC(=O)/C=C/C=C/C=C/C=C/C(=O)O)CC[C@]2(CO2)[C@H]1[C@@]1(C)O[C@@H]1CC=C(C)C", "false (0)"),
]

How did this test come out for CCCCCCCCO[C@@H]1O[C@H](CO)[C@@H](O)[C@H](O)[C@H]1O ? false (0)

How did this test come out for CN(C)CCN(Cc1ccccc1)c1ccccn1 ? false (0)

How did this test come out for O=C(O)c1ccc(S(=O)(=O)O)cc1C(=O)O ? false (0)

How did this test come out for CCOc1ccc(O)cc1 ? false (0)

How did this test come out for CCCCCCCC/C=C\CCCCCCCC(=O)OCC ? false (0)

How did this test come out for Nc1ccc(S(=O)(=O)Nc2ccccc2)cc1 ? false (0)

How did this test come out for CCN(CC)c1ccc2c(-c3ccccc3C(=O)O)c3ccc(=[N+](CC)CC)cc-3oc2c1 ? true (1)

How did this test come out for CC(COCCO)OCCO (configuration not stated) ? false (0)

How did this test come out for NS(=O)(=O)c1ccc(N2CCCCS2(=O)=O)cc1 ? false (0)

How did this test come out for CCOC(=O)Cc1cccc2ccccc12 ? false (0)

---

# target.under.test: Estrogen receptor (Homo sapiens) (UniProt P03372)
# Sequence (P03372 whole entry, looked up): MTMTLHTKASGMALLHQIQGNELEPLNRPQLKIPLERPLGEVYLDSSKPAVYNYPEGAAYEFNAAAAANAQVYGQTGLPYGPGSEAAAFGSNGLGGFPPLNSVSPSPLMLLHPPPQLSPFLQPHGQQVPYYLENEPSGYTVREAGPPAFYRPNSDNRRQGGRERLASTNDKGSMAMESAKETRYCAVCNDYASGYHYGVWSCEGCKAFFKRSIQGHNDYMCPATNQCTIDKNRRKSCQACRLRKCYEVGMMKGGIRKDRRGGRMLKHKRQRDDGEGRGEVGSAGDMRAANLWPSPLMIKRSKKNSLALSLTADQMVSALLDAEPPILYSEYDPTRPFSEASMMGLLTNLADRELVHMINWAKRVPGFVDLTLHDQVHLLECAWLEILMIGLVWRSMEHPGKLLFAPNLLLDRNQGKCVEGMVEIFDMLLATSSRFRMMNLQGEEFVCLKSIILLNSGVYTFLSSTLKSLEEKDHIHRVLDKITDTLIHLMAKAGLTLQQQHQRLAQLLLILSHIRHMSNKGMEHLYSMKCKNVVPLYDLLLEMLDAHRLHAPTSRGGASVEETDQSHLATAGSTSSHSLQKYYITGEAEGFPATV
# test.summary: qHTS assay to identify small molecule agonists of the estrogen receptor alpha (ER-alpha) signaling pathway using the BG1 cell line (AID 743079); further: nearly all actives have a fitted effect of over 20% in size; on activation: on the % scale 0 is the no-effect control and ±100 the full control effect
# experimental.context: BG1Luc4E2 cells, ERE-luciferase agonist, 22 h; series mostly up to 70.3 µM
Results filed as inconclusive are left out. Activity calls are given as the source filed them. The call rests on the fitted dose curve; in most records, active means well fitted activation curve with a large enough effect in the repeat runs; inconclusive means weak or mixed curves, or effect the other way; inactive means no such curve, though single readings can be large or run the other way.
Valid outcomes are listed here; reply with one: 1 (yes) = active, 0 (no) = inactive

Completed entries (count: 4):
# compound, label
data = [
    ("CNCCCCOc1ccccc1Cc1ccccc1", "0 (no)"),
    ("Nc1cccc(S(=O)(=O)c2cccc(N)c2)c1", "0 (no)"),
    ("C[C@@H](c1ncncc1F)C(O)(Cn1cncn1)c1ccc(F)cc1F (stereo not given in full)", "0 (no)"),
    ("CCCOC(C(=O)OC1CCN(C)CC1)(c1ccccc1)c1ccccc1", "0 (no)"),
]

How did this test come out for C=CC(=O)OCCOCCOC(=O)C=C ? 1 (yes)

How did this test come out for O=C(O)C1(C(=O)Nc2ccc(Cl)cc2Cl)CC1 ? 0 (no)

How did this test come out for CCC(CC)Nc1ccc(C)c(C)c1 ? 0 (no)

How did this test come out for CCCCCCCCCCCc1ccccc1 ? 0 (no)

How did this test come out for O=C(Nc1ccc(S(=O)(=O)N2CCOCC2)cc1)c1cc(Cl)ccc1NS(=O)(=O)c1ccc(Cl)s1 ? 0 (no)

How did this test come out for Cc1ncc(CO)c(C=O)c1O ? 0 (no)

How did this test come out for O=C(O)c1ccco1 ? 0 (no)

How did this test come out for CN(C)c1ccc(CCO)cc1 ? 0 (no)

How did this test come out for NCc1ccccc1Sc1ccccc1CO ? 0 (no)

How did this test come out for CC1=CC[C@H](C(C)C)C=C1 ? 0 (no)

How did this test come out for O=C1C(O)=C(O)C(=O)C(O)=C1O ? 0 (no)
